Target: T1, CD134 protein (His-tagged, Sino Biological Inc. 10481-H08H) (human, UniProt P43489 29-216)
T1 construct: bought protein coated on ELISA plates; also called OX40; TNFRSF4; not shown: His tag
T1 sequence (looked up): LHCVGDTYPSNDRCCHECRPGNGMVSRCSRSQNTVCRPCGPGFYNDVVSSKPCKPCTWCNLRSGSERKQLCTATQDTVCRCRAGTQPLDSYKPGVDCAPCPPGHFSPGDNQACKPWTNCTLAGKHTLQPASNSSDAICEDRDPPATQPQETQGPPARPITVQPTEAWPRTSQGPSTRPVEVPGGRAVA
Assay: ELISA, coated His-tagged CD134; also: test concentration or dose not given here
measurement_type: ELISA [abs. corr.] (abs. corr.)
Please give a number only; it is taken to be in abs. corr..

- binder: "P018.S.04.A.B06 (antibody, V domains shown, V regions on human Ig constant parts; also called AB134_7) VH: QSVEESGGRLVTPGTFLTLTCTVSGFSLSSYAMNWVRQSPGKGLEWIGIIYSDDIAYYASWAKGRFTISKTSTTVTLKMTSLTVADTATYFCARGDGDRSIWSFDLWGPGTLVTVSS VL: AQVLTQTPSPVSAAVGGTVTISCQSSESVWNNNWLAWYQQKPGQPPNLLIYEASTLASGVSSRFKGSGSGTQFTLTVSEVQSDDAATYYCQGGYYDSSPIWTFGGGTEVVVK"
  ELISA [abs. corr.] / abs. corr.: 2.64
- binder: "P018.S.11.A.B05 (antibody, V domains shown, V regions on human Ig constant parts; also called AB134_26) VH: QSVEESGGRLVTPGTPLTLTCTVSGFSLSTYNVAWVRQAPGKGLQYIGIMAFDGNTYYASWATGRFTISRTSTTVNLKITSPTTEDTATYFCCKGDPSSDTGTTLWGQGTLVTVSS VL: AAVLTQTPSSASEPVGGTVTIKCQSSPSVYSNNWLAWFQQKPGQRPKLLIYAAAKLASGVPSRFRGSGSGTQFTLTISDVQSDDAATYYCAGGFNSDSDTTFGGGTEVVVK"
  ELISA [abs. corr.] / abs. corr.: 1.65

// next entry
Exam item: What value of measured ELISA [abs. corr.] is listed for P018.S.12.A.H05 (antibody, V domains shown, V regions on human Ig constant parts; also called AB134_91) VH: QSLEESGGDLVKPGASLTLTCTASGFSFDIDYYMCWVRQAPGKGLEWIACIYAGSSGSTYYASWAKGRFTISKTSSTTVTLQMPSLTAADTATYFCARHYAGYAGDAYATDYYFNLWGRGTLVTVSS VL: DIVMTQTPSSVSATVGDTVTINCQASQSVSNFLAWYQQKPGQPPKPLIYGASNLESGVPSRFRGSGSGTEFTLTISGMKAEDAATYYCQSGYYSATFGAGTKVEIK ?
Marked response: 2.37
